Test system: HSC-4
Test: Cytotoxicity against human HSC4 cells after 48 hrs
Format: functional
Conditions: HSC-4, 48 h
# note: boundary value 200 nM maps to False; CC50 below it maps to True

>  <molecule>
O=C1/C(=C/c2ccccc2)CN(C(=O)CCC(=O)N2C/C(=C\c3ccccc3)C(=O)/C(=C/c3ccccc3)C2)C/C1=C\c1ccccc1

>  <measured-on>
HSC-4

>  <assigned-category>
False

$$$$
>  <molecule>
O=C1/C(=C/c2ccccc2)CN(C(=O)c2cccc(C(=O)N3C/C(=C\c4ccccc4)C(=O)/C(=C/c4ccccc4)C3)c2)C/C1=C\c1ccccc1

>  <measured-on>
HSC-4

>  <assigned-category>
False

$$$$
>  <molecule>
O=C1/C(=C/c2ccccc2)CN(C(=O)c2ccccc2C(=O)N2C/C(=C\c3ccccc3)C(=O)/C(=C/c3ccccc3)C2)C/C1=C\c1ccccc1

>  <measured-on>
HSC-4

>  <assigned-category>
True

$$$$
>  <molecule>
O=C1/C(=C/c2ccccc2)CN(C(=O)CC(=O)N2C/C(=C\c3ccccc3)C(=O)/C(=C/c3ccccc3)C2)C/C1=C\c1ccccc1

>  <measured-on>
HSC-4

>  <assigned-category>
True

$$$$
>  <molecule>
O=C1/C(=C/c2ccccc2)CN(C(=O)C#CC(=O)N2C/C(=C\c3ccccc3)C(=O)/C(=C/c3ccccc3)C2)C/C1=C\c1ccccc1

>  <measured-on>
HSC-4

>  <assigned-category>
False

$$$$
>  <molecule>
O=C1/C(=C/c2ccccc2)CN(C(=O)CCCC(=O)N2C/C(=C\c3ccccc3)C(=O)/C(=C/c3ccccc3)C2)C/C1=C\c1ccccc1

>  <measured-on>
HSC-4

>  <assigned-category>
True

$$$$
>  <molecule>
N[C@@H](Cc1ccc(N(CCCl)CCCl)cc1)C(=O)O [MELPHALAN]

>  <measured-on>
HSC-4

>  <assigned-category>
False

$$$$
